Origin of values: patent US20220332800A1

binders and their reported response of 2nd mAb
Target: T1, ZIKV-VLP (Native Antigen Inc.) (Zika virus)
T1 construct: also called Zika VLP; ZVLP
Assay: BLI binning on ZIKV-VLP; 1st mAb: 78-2
measuredProperty: response of 2nd mAb

INSERT INTO assay_data (binder, endpointvalue) VALUES
  ('anti-ZIKV antibody 306-2 (antibody, V domains shown) VH: QSLEESGGDLVKPGASLTLTCTASGFDFSDRYYMCWVRQAPGKGLEWIGCIYVGSGDTYYASWAKGRFTISRTSSTTVTLQMTRLTAADTATYFCARHPGTYFTLWGPGTLVTVSS VL: DVVMTQTPSSVSAAVGGTVTINCQASQNIVNNLAWYQQRPGQPPKLLIYDTSTLASGVPSRFKGSGSGTEFTLTISDLECADAATYYCQTYYYYNKIINGFGGGTEVVVKG', 0.26),
  ('anti-ZIKV antibody 270-12 (antibody, V domains shown, also called clone 270-12) VH: QAQLEESGGDLVKPEGSLTLTCTASGFSFTDRHYMCWVRQAPGKGLEWIACVYPGSSGSTYYASWARGRFTISKTSSTTVTLRMTSLTAADTATYFCARSSYPDSSGYSYGMDLWGPGTLVTVSS VL: DIVMTQTPASVEAAVGGTVTIKCQASQDINSNLAWYQQKPGQRPKFLMYLTSKLASGVPSRFRGSGSGTQFTLTISDLECADAATYYCQTYYDISNYGYAFGGGTEVVVKG', 0.44),
  ('anti-ZIKV antibody 242-3 (antibody, V domains shown, also called clone 242-3) VH: QAQLEESGGDLVKPEGSLTLTCTASGFSFTDRHYMCWIRQAPGKGLEWIACVYPGSSGSTYYASWARGRFTISKTSSTTVTLRMTSLTAADTATYFCARSSYPDSSGYSYGMDLWGPGTLVTVSS VL: DIVMTQTPASVEAAVGGTVTIKCQASQNINSNLAWYQQKPGQRPKFLMYLTSKLASGVPSRFRGSGSGTQFTLTISDLECADAATYYCQTYYDISNYGYAFGGGTEVVVK', 0.18);
